This section presents compounds with their documented pIC50 values.
Subject Of Test: H1047R PIK3CA enzyme (Homo sapiens, UniProt P42336, H1047R)
Sequence (P42336 whole entry H1047R): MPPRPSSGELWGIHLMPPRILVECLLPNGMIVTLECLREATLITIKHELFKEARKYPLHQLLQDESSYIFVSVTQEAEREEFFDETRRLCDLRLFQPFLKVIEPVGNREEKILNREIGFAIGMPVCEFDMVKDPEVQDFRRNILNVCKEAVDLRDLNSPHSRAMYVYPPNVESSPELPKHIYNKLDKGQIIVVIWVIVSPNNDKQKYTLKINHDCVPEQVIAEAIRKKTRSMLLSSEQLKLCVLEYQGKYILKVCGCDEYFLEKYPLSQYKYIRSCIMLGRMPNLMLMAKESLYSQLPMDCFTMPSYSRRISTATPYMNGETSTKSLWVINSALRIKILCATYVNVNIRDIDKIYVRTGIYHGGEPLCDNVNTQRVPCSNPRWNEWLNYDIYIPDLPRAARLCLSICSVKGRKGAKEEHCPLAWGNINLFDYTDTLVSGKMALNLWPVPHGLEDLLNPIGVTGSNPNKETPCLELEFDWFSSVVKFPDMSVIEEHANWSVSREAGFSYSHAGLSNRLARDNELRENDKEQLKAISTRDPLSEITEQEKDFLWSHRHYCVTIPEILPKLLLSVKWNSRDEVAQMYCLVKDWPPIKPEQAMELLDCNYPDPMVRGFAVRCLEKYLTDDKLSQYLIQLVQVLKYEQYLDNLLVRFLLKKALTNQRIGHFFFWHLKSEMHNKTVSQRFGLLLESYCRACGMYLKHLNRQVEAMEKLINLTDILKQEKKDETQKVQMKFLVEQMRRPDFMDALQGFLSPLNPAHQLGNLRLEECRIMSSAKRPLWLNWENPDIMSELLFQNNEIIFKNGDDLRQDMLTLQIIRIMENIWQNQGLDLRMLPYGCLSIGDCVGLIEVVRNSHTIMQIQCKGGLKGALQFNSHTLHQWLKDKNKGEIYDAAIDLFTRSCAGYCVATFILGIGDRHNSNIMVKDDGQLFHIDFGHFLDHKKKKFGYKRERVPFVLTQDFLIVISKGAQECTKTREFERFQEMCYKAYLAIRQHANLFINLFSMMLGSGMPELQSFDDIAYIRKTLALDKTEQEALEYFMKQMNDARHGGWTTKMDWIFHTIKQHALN
Sequence (P27986 whole entry partner): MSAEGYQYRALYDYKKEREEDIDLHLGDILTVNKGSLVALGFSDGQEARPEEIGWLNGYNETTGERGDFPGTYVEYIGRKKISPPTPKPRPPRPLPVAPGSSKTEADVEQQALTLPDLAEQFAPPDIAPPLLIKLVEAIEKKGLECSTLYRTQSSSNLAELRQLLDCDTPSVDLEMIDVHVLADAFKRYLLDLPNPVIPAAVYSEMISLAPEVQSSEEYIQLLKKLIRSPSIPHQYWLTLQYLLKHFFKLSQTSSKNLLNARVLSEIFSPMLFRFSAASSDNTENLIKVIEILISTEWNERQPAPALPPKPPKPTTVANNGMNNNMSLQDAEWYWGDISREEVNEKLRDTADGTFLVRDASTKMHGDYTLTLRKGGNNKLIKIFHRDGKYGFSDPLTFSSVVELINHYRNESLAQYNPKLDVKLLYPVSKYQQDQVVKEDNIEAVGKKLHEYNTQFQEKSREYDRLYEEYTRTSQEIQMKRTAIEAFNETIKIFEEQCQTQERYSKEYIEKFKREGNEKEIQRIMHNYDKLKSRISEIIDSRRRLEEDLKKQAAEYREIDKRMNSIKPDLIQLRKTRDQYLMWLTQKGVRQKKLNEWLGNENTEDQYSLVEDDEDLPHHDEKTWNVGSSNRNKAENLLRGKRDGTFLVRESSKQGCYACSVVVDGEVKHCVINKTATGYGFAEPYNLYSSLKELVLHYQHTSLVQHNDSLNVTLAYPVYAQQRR
Assay Notes: ADP-Glo Biochemical PIK3CA Kinase Assay
pIC50: −log10 of the molar value.

Compound	pIC50
O=C(Nc1cc(-c2cc3cccnc3[nH]2)cc2c1C(c1cc(F)ccc1Cl)NC2=O)c1cc(F)cc(C(F)(F)F)c1 (stereo not drawn) [Compound I-972]	≥ 7.00
O=C1NC(c2ccccc2Cl)c2c(NC(=O)c3csc4ccccc34)ccnc21 (stereo not drawn) [Compound I-9]	6.30 to 7.00
N#Cc1nc2cc(-c3cc(NC(=O)c4cc(F)cc(C(F)(F)F)c4)c4c(c3)C(=O)NC4c3cc(F)ccc3Cl)ccn2n1 (stereo not drawn) [Compound I-1741]	≥ 7.00
O=C1NC(c2cc(F)ccc2Cl)c2c(NC(=O)C3(c4ccc(Cl)c(Cl)c4)CCCC3)cc(Br)cc21 (stereo not drawn) [Compound I-1636]	4.00 to 5.00
CN1C[C@H](COc2cc(NC(=O)c3cc(F)cc(C(F)(F)F)c3)c3c(c2)C(=O)N[C@H]3c2cc(F)ccc2Cl)CC1=O (single isomer, unassigned) [Compound I-1522]	≥ 7.00

The record that follows has no pIC50 shown yet.
Exercise: Look up pIC50: Cn1cc(Nc2cc(NC(=O)c3cc(F)cc(C(F)(F)F)c3)c3c(c2)C(=O)N[C@@H]3c2cc(F)ccc2Cl)cn1 (single isomer, unassigned) [Compound I-998]
Key: 6.00 to 6.30
